System: guinea pig tracheal spiral preparations
Assay: Bronchodilation in vitro; guinea pig tracheal spiral preparations
Format: cell-based
Conditions: Cavia porcellus; relaxation of guinea pig tracheal spirals, relative to total relaxation with 10^-3 M isoprenaline; read-out: I.A (efficacy, Intrinsic Activity)
The following compounds are listed with their measured Emax values.
measured.property: Emax (%)

compound: CC1(C)Oc2ccc(C(F)(F)C(F)(F)F)cc2[C@@H](N2CCCCC2=O)[C@@H]1O (relative stereo) [Example 4]
numeric.result: 90
//
compound: CC1(C)Oc2ccc(C(F)(F)C(F)(F)F)cc2[C@@H](N2CCCC2=O)[C@@H]1O (relative stereo)
numeric.result: 88
//
compound: CC1(C)C=C(N2CCCCC2=O)c2cc(C(F)(F)C(F)(F)F)ccc2O1
numeric.result: 88
//
compound: CC1(C)Oc2ccc(C(O)C(F)(F)F)cc2[C@@H](N2CCCC2=O)[C@@H]1O (stereo partly shown)
numeric.result: 89
